- Test system: IL-6, IP-10
- ASSAY_PROCEDURE: Cytokine induction in mice upon intravenous administration
- Type: in vivo
- Set-up: unit not given here
- CONDITION_NOTES: intravenous, 0.5 mpk, 6 hours
REPORTED_METRIC: Cytokine induction IL-6

See these solved cases before continuing.
{"MOLECULE": "CCCCCCCC/C=C\\COC(=O)CCCCCN(CCO)CCCCCC(=O)OC/C=C\\CCCCCCCC [Compound 140]", "Cytokine induction IL-6": 282.82}
{"MOLECULE": "CCCCCCCCCOC(=O)CCCCCCCN(CCCCCCCC(=O)OC(CCCCCCCC)CCCCCCCC)CC(O)CC (centres unmarked) [Compound 13]", "Cytokine induction IL-6": 29.07}
{"MOLECULE": "CCCCCCCCCN(CCCO)CCCCCCCC(=O)OC(CCCCCCCC)CCCCCCCC [Compound 7]", "Cytokine induction IL-6": 116.35}
{"MOLECULE": "CCCCCCCCCOC(=O)CCCCCCCN(CCCCCCCC(=O)OC(CCCCCCCC)CCCCCCCC)CC(C)O (centres unmarked) [Compound 10]", "Cytokine induction IL-6": 88.81}
{"MOLECULE": "CCCCCCCCCOC(=O)CCCCCCCN(CCCCCCCC(=O)OC(CCCCCCCC)CCCCCCCC)CCN(C)C [Compound 14]", "Cytokine induction IL-6": 75.29}
{"MOLECULE": "CCCCCCCCCOC(=O)CCCCCCCN(CCCCCCCC(=O)OC(CCCCCCCC)CCCCCCCC)CCOC [Compound 15]", "Cytokine induction IL-6": 64.65}

The reported value for CCCCCCCCCCCCN(CCO)CCCCCCCCCCCC(=O)OC [Compound 137] in terms of Cytokine induction IL-6 is 130.82

Record CCCCCCCCCOC(=O)CCCCCCCN(CCO)CCCCCCCC(=O)OC(CCCCCCCC)CCCCCCCC [Compound 18] , field Cytokine induction IL-6: 78.76
